Measured On: T1, biotinylated human recombinant IL-12Rβ2 (produced in-house) (human, UniProt Q99665 24-622, random biotinylated)
T1 construct: Soluble recombinant protein used for panning, ELISA and BLI; also called hIL-12RB2; hIL12RB2
T1 sequence: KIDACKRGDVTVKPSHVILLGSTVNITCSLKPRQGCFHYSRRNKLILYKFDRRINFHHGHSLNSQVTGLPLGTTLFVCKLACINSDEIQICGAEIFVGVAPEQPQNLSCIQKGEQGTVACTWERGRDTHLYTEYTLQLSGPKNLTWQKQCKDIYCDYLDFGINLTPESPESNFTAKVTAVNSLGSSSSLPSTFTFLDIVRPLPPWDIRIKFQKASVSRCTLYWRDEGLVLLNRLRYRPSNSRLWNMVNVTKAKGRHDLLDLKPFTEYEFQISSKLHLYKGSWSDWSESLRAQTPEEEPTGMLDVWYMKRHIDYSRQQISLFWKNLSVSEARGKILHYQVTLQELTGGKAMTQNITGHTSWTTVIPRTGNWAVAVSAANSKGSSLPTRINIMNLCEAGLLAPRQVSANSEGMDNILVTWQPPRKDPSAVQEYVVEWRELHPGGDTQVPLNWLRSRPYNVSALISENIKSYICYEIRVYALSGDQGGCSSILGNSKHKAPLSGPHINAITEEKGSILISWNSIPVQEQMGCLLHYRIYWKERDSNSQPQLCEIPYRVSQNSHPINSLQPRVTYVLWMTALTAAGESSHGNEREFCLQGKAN
Assay Details: ELISA, periplasmic extract on biotinylated human IL-12Rβ2; signal over streptavidin control well
Exercise: for every item that follows, state its recorded hIL12RB2/control (ELISA).
Answers are plain numbers, in ratio.

1. anti-IL-12Rβ2 VHH clone 3CAHS124 (clone ID 20400) (VHH, Tested as periplasmic extract; not shown: C-terminal HA tag) VHH: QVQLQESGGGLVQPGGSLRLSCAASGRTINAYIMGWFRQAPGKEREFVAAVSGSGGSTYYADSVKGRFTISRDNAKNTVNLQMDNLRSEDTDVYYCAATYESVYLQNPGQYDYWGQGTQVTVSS ... 5.67
2. anti-IL-12Rβ2 VHH clone 3CRHS128 (clone ID 20432) (VHH, Tested as periplasmic extract; not shown: C-terminal HA tag) VHH: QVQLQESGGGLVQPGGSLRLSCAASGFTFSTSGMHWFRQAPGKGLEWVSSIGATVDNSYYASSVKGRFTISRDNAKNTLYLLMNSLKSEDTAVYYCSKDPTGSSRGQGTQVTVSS ... 3.65
3. anti-IL-12Rβ2 VHH clone 3CRH5 (clone ID 20373) (VHH, Tested as periplasmic extract; also called 3CRHS; not shown: C-terminal HA tag) VHH: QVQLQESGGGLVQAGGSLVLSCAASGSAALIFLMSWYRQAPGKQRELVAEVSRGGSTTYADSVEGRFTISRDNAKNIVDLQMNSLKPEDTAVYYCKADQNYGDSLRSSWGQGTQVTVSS ... 8.64
4. anti-IL-12Rβ2 VHH clone 3CRHS106 (clone ID 20429) (VHH, Tested as periplasmic extract; not shown: C-terminal HA tag) VHH: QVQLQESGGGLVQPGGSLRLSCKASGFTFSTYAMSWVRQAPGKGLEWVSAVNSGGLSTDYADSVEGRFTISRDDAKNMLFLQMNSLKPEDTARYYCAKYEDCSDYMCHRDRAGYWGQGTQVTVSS ... 10.2

Record hIL12RB2/control (ELISA) for all entries; do not skip any.
1. anti-IL-12Rβ2 VHH clone 3CRHM73 (clone ID 21060) (VHH, Tested as periplasmic extract; not shown: C-terminal HA tag) VHH: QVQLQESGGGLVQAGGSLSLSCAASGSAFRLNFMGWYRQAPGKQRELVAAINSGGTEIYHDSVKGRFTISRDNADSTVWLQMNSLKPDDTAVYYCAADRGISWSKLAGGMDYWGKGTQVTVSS
2. anti-IL-12Rβ2 VHH clone 3CAHM11 (clone ID 21050) (VHH, Tested as periplasmic extract; not shown: C-terminal HA tag) VHH: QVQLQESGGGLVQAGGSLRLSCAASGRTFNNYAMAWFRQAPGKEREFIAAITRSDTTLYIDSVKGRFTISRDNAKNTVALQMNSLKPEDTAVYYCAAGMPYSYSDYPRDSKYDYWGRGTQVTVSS

1. 6.9
2. 3.04

Record hIL12RB2/control (ELISA) for all entries; do not skip any.
1. anti-IL-12Rβ2 VHH clone 3CRHM14 (clone ID 21053) (VHH, Tested as periplasmic extract; not shown: C-terminal HA tag) VHH: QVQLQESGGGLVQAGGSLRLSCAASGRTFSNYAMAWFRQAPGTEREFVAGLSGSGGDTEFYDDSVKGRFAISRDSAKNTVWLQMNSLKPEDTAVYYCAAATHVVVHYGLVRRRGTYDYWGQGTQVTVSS
2. anti-IL-12Rβ2 VHH clone 2CRH82 (clone ID 20372) (VHH, Tested as periplasmic extract; not shown: C-terminal HA tag) VHH: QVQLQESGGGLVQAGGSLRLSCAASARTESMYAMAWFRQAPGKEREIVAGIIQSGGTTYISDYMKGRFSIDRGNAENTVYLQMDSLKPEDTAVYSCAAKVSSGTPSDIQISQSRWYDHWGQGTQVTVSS

1. 3.11
2. 16.1

For the binder anti-IL-12Rβ2 VHH clone 3CAHS102 (clone ID 20399) (VHH, Tested as periplasmic extract; not shown: C-terminal HA tag) VHH: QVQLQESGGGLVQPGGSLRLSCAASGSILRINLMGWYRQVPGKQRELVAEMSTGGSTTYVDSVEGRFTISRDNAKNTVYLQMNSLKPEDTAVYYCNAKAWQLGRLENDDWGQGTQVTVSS , report hIL12RB2/control (ELISA).
3.54
